Assay: NCI Yeast Anticancer Drug Screen. Data for the rad18 strain (AID 177)
Conditions: S. cerevisiae rad18 mutant growth inhibition; at 11.0 µM
This is part of a sample that, as a whole, favours compounds with a hit. Of some 79,000 tested, about 15% had one in any assay. The source made the active and inactive calls. Rule as the data show it: active = growth inhibition above about 70%; inactive = the rest.
Outcomes you can answer with include only these: YES for active, NO for inactive

In [3]: df
Out[3]:
                                   compound  qualitative_label
0        CCOc1c(N=Nc2ccccc2OC)c(C)nn1C(=S)S                 NO
1       Cc1cc(C)c(NC(=S)NC(=O)c2ccccc2)cc1C                 NO
2  CCOC(=O)c1[nH]cc(C)c1-c1cccn1-c1ccc(Cl)cc1[N+](=O)[O-]                 NO
3                 Cc1ccccc1N=Cc1cc(Cl)ccc1O                 NO
4  COc1cccc2c1C(=O)c1c(O)c3c(c(O)c1C2=O)C[C@@](O)(C(C)=O)C[C@@H]3OC1CC(OC(C)=O)C(OC(C)=O)C(C)O1 (stereo not given in full)                 NO
5  CN(C)CCNC(=O)c1cccc2cc([N+](=O)[O-])ccc12                 NO
6  O=C(Oc1ccc2c(c1)CN(Cc1ccccc1)CO2)c1ccccc1                 NO
7               Cc1nc2ccc(N=NN(C)C)cc2[nH]1                 NO

Query string: Hi, sorry to bother you, what did the test record for Clc1ccc2c(c1)N(CCCN1CCCC13CCCCC3)c1ccccc1S2 ?
Result string: NO

Query string: Hi, sorry to bother you, what did the test record for CCCOC(=O)C(F)C(Br)C(=O)OCCC (stereo not given) ?
Result string: YES

----------
Assay: NCI Yeast Anticancer Drug Screen. Data for the wt1 strain (AID 149);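 also: 0% = growth of vehicle-treated wt1 cultures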
Settings: S. cerevisiae wt1 strain (SPY 50644) growth inhibition; at 3.7 µM; active compounds read high
Method: Growth inhibition of yeast strains with defined genetic alterations is measured as a screen for potential anti-cancer activity. Selected strains with alterations in DNA damage repair or cell cycle control were exposed to compounds and growth inhibition was measured relative to vehicle treated controls. The strain used in this assay is wt1
Compounds without any hit were thinned out: in the full panel of roughly 79,000, 15% have a hit.
Below, each entry is listed alongside its reported growth inhibition.
Express your answer in %, writing the number without its unit.

                                   compound  recorded_value
0  O=C(O)c1ccccc1/C=N/N=C1c2ccccc2-c2ccccc21               0
1              Cc1cc2cc3cc(C)c(N)cc3nc2cc1N              -8
2                       Oc1cccc2cc(Cl)cnc12             -39
3                Cc1c(-c2ccccn2)ccc2ccccc12               0
4       CCCCOCn1c(=O)[nH]c(=O)c2cc(Br)ccc21             -18

Query string: What does the data say about its growth inhibition? Entry: CC1=C(C(=O)NCc2ccccc2)C(c2ccccc2)C(C(=O)NCc2ccccc2)=C(C)N1
Result string: -1

Query string: What does the data say about its growth inhibition? Entry: CCCC(O)C1CC(C(C)C)CCC1C (stereo unspecified)
Result string: 0

Query string: What does the data say about its growth inhibition? Entry: CC(C)OC(=O)c1ccc(CCc2cc(O)c(Br)cc2O)cc1
Result string: 33

Query string: What does the data say about its growth inhibition? Entry: COc1ccc(C(=O)Oc2ccccc2Br)cc1
Result string: -7

Query string: What does the data say about its growth inhibition? Entry: Cc1ccc(NC(=O)/C(CC2N=c3c(ccc4c(O)c5ccccc5c(O)c34)=NC2O)=N/NC(C)(C)C)cc1 (stereo unspecified)
Result string: 2

Query string: What does the data say about its growth inhibition? Entry: CCOC(=O)c1cc([N+](=O)[O-])c(Sc2ncnc3nc[nH]c23)c([N+](=O)[O-])c1
Result string: -26

Query string: What does the data say about its growth inhibition? Entry: COc1cc([C@@H]2c3cc4c(cc3[C@@H](Nc3ccc(NC(=O)c5cc([N+](=O)[O-])cn5C)cc3)[C@H]3COC(=O)[C@H]23)OCO4)cc(OC)c1O
Result string: 20

Query string: What does the data say about its growth inhibition? Entry: CCc1ccc2c(c1)N(CC(C)CN(C)C)c1ccccc1S2 (stereo unspecified)
Result string: -4

Query string: What does the data say about its growth inhibition? Entry: C/C=C/SC(=Nc1ccccc1)Nc1ccccc1
Result string: 0

Query string: What does the data say about its growth inhibition? Entry: CCN(CC)CCN(C)CCc1ccc(Br)cc1
Result string: 11

Query string: What does the data say about its growth inhibition? Entry: O=c1[nH]c2ccc(Cl)cc2o1
Result string: -28
